Target: Aromatase (Homo sapiens, UniProt P11511)
Construct: Microsomes of human placenta; from tissue; host or cells: human placenta, microsomes
Sequence (P11511 whole entry): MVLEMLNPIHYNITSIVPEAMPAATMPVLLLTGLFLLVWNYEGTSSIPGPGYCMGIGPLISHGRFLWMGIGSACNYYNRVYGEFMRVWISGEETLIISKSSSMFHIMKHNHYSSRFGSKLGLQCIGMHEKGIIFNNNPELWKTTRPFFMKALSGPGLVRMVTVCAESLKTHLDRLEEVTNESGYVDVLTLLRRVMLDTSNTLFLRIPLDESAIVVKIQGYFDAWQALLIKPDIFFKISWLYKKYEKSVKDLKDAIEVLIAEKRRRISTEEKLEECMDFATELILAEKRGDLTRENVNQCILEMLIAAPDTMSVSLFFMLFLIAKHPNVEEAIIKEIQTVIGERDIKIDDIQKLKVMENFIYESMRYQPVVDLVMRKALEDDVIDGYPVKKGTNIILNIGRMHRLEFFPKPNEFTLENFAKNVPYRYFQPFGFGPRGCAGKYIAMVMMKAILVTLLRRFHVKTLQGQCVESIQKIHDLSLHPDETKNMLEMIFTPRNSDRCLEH
Assay: Aromatase-inhibiting activity (radiometric, H^14COOH release; method of Covey et al.)
Assay type: biochemical
This section presents molecules with their documented IC50 values.
VALUE_TYPE: IC50 (nM)

1. O[C@@]1(Cc2ccc(Cl)cc2)CCC[C@@H]1Cn1ccnc1 (relative stereo) :: 20
2. CC(C)[C@@](O)(CCn1ccnc1)Cc1ccc(Cl)cc1 :: 10
3. C[C@]12CCC(=O)C(O)=C1CC[C@@H]1[C@@H]2CC[C@]2(C)C(=O)CC[C@@H]12 [Reference, 4-Hyroxyandrostenedione, reference compound] :: 20
4. Fc1cccc2c1C[C@H]1CCC[C@@]1(Cn1cncn1)O2 :: 13
5. O[C@@]1(Cc2ccc(F)cc2F)CCC[C@H]1Cn1cncn1 (relative stereo) :: 12
6. O[C@@]1(c2ccc(Cl)cc2)CCC[C@H]1Cn1cncn1 (relative stereo) :: 10
7. O[C@@]1(Cc2ccc(-c3ccccc3)cc2)CCC[C@H]1Cn1cncn1 (relative stereo) :: 13
8. CC1(C)CC[C@@H]2Cc3ccc(Cl)cc3O[C@]21Cn1cncn1 :: 12
9. O[C@@]1(Cc2ccc(Cl)cc2)CCC[C@H]1Cn1cncn1 (relative stereo) :: 40
10. CC1(C)C[C@@H](Cc2ccc(Cl)cc2)[C@](O)(Cn2ccnc2)C1 (relative stereo) :: 65
11. Clc1ccc2c(c1)O[C@]1(Cn3cncn3)CCC[C@@H]1C2 :: 30
12. O[C@@]1(Cc2ccc(Cl)cc2Cl)CCC[C@H]1Cn1cncn1 (relative stereo) :: 10
13. O[C@@]1(Cc2ccc(Cl)cc2)CCC[C@H]1Cn1ccnc1 (stereo in doubt) :: 40
14. CC1(C)C[C@@H](Cc2ccc(Cl)cc2)[C@](O)(Cn2cncn2)C1 (relative stereo) :: 40
